// log10(half-life) lookup, one value per entry
Experiment: Cleavage by corneal esterase at 37 degree C and at pH 7.4
Assay type: ADME, tissue-based, Cornea
Result type: log10(half-life) (log10 of the value in min)

1) CCOC(C)(C)C(=O)Oc1ccc2nc(S(N)(=O)=O)sc2c1 = 1.81
2) NS(=O)(=O)c1nc2ccc(OC(=O)c3ccccc3)cc2s1 = 1.48
3) CCCCCC(=O)Oc1ccc2nc(S(N)(=O)=O)sc2c1 = 0.30
4) COC(C)(C)C(=O)Oc1ccc2nc(S(N)(=O)=O)sc2c1 = 1.56
5) CC(C)COC(=O)Oc1ccc2nc(S(N)(=O)=O)sc2c1 = 0.85
6) CC(=O)Oc1ccc2nc(S(N)(=O)=O)sc2c1 = 1.34
7) COCCOC(C)(C)C(=O)Oc1ccc2nc(S(N)(=O)=O)sc2c1 = 1.86
8) CCCC(=O)Oc1ccc2nc(S(N)(=O)=O)sc2c1 = 0.78
9) NS(=O)(=O)c1nc2ccc(OC(=O)C3CCCCC3)cc2s1 = 0.30
10) CCOC(=O)Oc1ccc2nc(S(N)(=O)=O)sc2c1 = 1.28
11) CC(C)C(=O)Oc1ccc2nc(S(N)(=O)=O)sc2c1 = 0.95
12) CC(C)(C)C(=O)Oc1ccc2nc(S(N)(=O)=O)sc2c1 = 1.58
